The measurements presented in this section are drawn from patent US20220056125A1.

Molecular target: T1, human PAR-2 (human, UniProt P55085 26-397)
T1 sequence: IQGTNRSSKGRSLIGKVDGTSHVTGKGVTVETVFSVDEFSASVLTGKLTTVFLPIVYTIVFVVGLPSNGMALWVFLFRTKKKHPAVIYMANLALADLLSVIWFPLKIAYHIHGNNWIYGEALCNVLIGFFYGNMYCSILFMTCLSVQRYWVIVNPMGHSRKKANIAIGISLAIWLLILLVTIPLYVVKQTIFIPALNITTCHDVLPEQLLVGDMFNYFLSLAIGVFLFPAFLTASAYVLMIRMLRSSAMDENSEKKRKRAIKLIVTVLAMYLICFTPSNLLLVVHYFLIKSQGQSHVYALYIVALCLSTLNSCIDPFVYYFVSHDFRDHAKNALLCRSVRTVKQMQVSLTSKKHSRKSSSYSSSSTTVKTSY
Test: cell-based or functional assay
READOUT TYPE: IC50, PAR-2 β-arrestin cell assay (nM)
Reply numerically in nM, unit not repeated.

[
  {
    "BINDER": "Ab311 (antibody, human IgG4, V domains shown, also called Anti-PAR-2 antibody # 311) VH: QVQLKESGPGLVQPSQTLSLSCTVSGFSLTTYGVIWVRQPPGKGLMWMGVIWGNGNTYYNSPLKSRLSISRDTSKSQVFLKMNNLQSEDTAMYFCGRWRGYKDYPFDYWGQGVKVTVSS VL: DIQMTQSPSFLSASVGDRVTINCKASQNIYKYLDWYQQKLGEAPKLLIYNSNILHTGVPSRFSGSGSGTDFTLSISSLQPEDVATYFCLQHNSGWTFGGGSKLELR",
    "TEST RESULT": 1.8
  },
  {
    "BINDER": "Ab201 (antibody, human IgG4, V domains shown) VH: QVQLQQSGPELVKPGASVKISCKASGFSFTSFYIHWVNQRPGQGLEWIGWIYPGSGNTLYNEKFKGKATLTADTSSSTAYIHLSSLTSEDSAVYYCTRGPLFYGSSHWYFDVWGMGTTVTVSS VL: EVQITQSPSYLAASPGETITINCRASKSISKYLAWYQEKPGKTNKLLIYSGSTLQSGIPSRFSGSGSGTDFTLTISSLEPEDFAMYYCQQHNKYPLTFGAGTRLELK",
    "TEST RESULT": 10.7
  }
]

Which value of IC50, PAR-2 β-arrestin cell assay has been reported for Ab261 (antibody, human IgG4, V domains shown, also called Anti-PAR-2 antibody # 261) VH: EVQLVESGGGLVQPGRSLKLSCVASGFTFNNYWMTWIRQAPGKGLEWVASITNTGGNTYYPDSVKGRFTISRDNAKSTLYLQMNSLRSEDTATYYCTRDRIIRGADWFAYWGQGTLVTVSS VL: DIQMTQSPHSLSASLGETVSIECLASEGISNYLAWFQQKPGKSPQLLIYYASSLQDGVPSRFSGSGSGTQYSLKISNMQPEDEGVYYCQQGYKYPWTFGGGTKLELK in the records? 19.9
